system: Escherichia coli TOP10; experiment: shrunken log2 fold change of peptide-encoding DNA abundance (4.5 h post-induction vs induction); higher = less antimicrobial activity (less host growth inhibition); details: time post-induction: 4.5 h; library: site-saturation at positions 5, 18, 19, 20
# maps each entry to its shrunken log2 fold change

The examples below pair each entry with its known result.
1. RRIRDRPPRLPRPRPRPIDFPRP	0.132
2. RRIRQRPPRLPRPRPRPCLHPRP	-0.0247
3. RRIRDRPPRLPRPRPRPGGNPRP	-0.0716
4. RRIRVRPPRLPRPRPRPQAWPRP	0.416
5. RRIRYRPPRLPRPRPRPVWGPRP	0.432

Query RRIRKRPPRLPRPRPRPRQIPRP yields shrunken log2 fold change of 0.298

Query RRIRMRPPRLPRPRPRPMTDPRP yields shrunken log2 fold change of 0.0744

---

system: Escherichia coli TOP10; test: shrunken log2 fold change of peptide-encoding DNA abundance (4.5 h post-induction vs induction); higher = less antimicrobial activity (less host growth inhibition); conditions: time post-induction: 4.5 h; library: site-saturation at positions 5, 18, 19, 20
MEASURE_NAME: shrunken log2 fold change
Write the value as a bare number.

The examples below pair each entry with its known result.
1) RRIRQRPPRLPRPRPRPMLCPRP	-0.00319
2) RRIRDRPPRLPRPRPRPHGSPRP	0.208

For RRIRFRPPRLPRPRPRPNHGPRP on Escherichia coli TOP10, measured shrunken log2 fold change was -0.4

For RRIRWRPPRLPRPRPRPAQIPRP on Escherichia coli TOP10, measured shrunken log2 fold change was 0.0333

For RRIRQRPPRLPRPRPRPFEMPRP on Escherichia coli TOP10, measured shrunken log2 fold change was -0.0512

For RRIRQRPPRLPRPRPRPPGPPRP on Escherichia coli TOP10, measured shrunken log2 fold change was 0.255

For RRIRRRPPRLPRPRPRPSGTPRP on Escherichia coli TOP10, measured shrunken log2 fold change was 0.494

For RRIRQRPPRLPRPRPRPNAMPRP on Escherichia coli TOP10, measured shrunken log2 fold change was -0.226

For RRIRRRPPRLPRPRPRPFHQPRP on Escherichia coli TOP10, measured shrunken log2 fold change was -0.191

For RRIRARPPRLPRPRPRPHGLPRP on Escherichia coli TOP10, measured shrunken log2 fold change was 0.268

For RRIRKRPPRLPRPRPRPLARPRP on Escherichia coli TOP10, measured shrunken log2 fold change was 0.213

---

tested on: Escherichia coli TOP10; assay: shrunken log2 fold change of peptide-encoding DNA abundance (4.5 h post-induction vs induction); higher = less antimicrobial activity (less host growth inhibition); conditions: time post-induction: 4.5 h; library: site-saturation at positions 5, 18, 19, 20
Classify by shrunken log2 fold change. Ranges: class A: < 0.01; class B: ≥ 0.01 and < 0.2; class C: ≥ 0.2

For the record RRIRFRPPRLPRPRPRPQFGPRP , report the class its shrunken log2 fold change corresponds to.
class A

For the record RRIRKRPPRLPRPRPRPPVNPRP , report the class its shrunken log2 fold change corresponds to.
class B

---

# maps each entry to its shrunken log2 fold change
tested on: Escherichia coli TOP10; assay: shrunken log2 fold change of peptide-encoding DNA abundance (4.5 h post-induction vs induction); higher = less antimicrobial activity (less host growth inhibition); conditions: time post-induction: 4.5 h; library: site-saturation at positions 5, 18, 19, 20;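 note: peptides expressed intracellularly from a pBAD plasmid library in pooled LB shake-flask culture, induced with 0.3% L-arabinose, DNA abundance read by NGS, three biological replicates, DESeq2 with apeglm shrinkage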
Write the value as a bare number.

For RRIRPRPPRLPRPRPRPPLCPRP on Escherichia coli TOP10, measured shrunken log2 fold change was 0.281

For RRIRERPPRLPRPRPRPYWAPRP on Escherichia coli TOP10, measured shrunken log2 fold change was -0.888

For RRIRWRPPRLPRPRPRPNRMPRP on Escherichia coli TOP10, measured shrunken log2 fold change was 0.126

For RRIRARPPRLPRPRPRPCDDPRP on Escherichia coli TOP10, measured shrunken log2 fold change was -0.0166

For RRIRDRPPRLPRPRPRPNAPPRP on Escherichia coli TOP10, measured shrunken log2 fold change was 0.209

For RRIRSRPPRLPRPRPRPDIWPRP on Escherichia coli TOP10, measured shrunken log2 fold change was 0.00423

For RRIRFRPPRLPRPRPRPRAHPRP on Escherichia coli TOP10, measured shrunken log2 fold change was 0.00718

For RRIRWRPPRLPRPRPRPTYEPRP on Escherichia coli TOP10, measured shrunken log2 fold change was 0.207

For RRIRVRPPRLPRPRPRPMMYPRP on Escherichia coli TOP10, measured shrunken log2 fold change was 0.00519
